test: qHTS for Inhibitors of Plasmodium falciparum (7G8) proliferation (AID 504316); further: nearly all actives have a fitted effect of over 65% in size; details: P. falciparum 7G8 in erythrocytes, SYBR Green DNA, 72 h; series mostly up to 6.7 µM
Results filed as inconclusive are left out. Calls of active or inactive are those of the source. The call rests on the fitted dose curve; in most records, active means well fitted inhibition curve with a large enough effect; inconclusive means small, poorly fitted or top-dose-only effect; inactive means flat fitted curve, though single readings scatter.
Classes used: active, inactive

> print(dat)
                                   compound  category
1  Cc1ccc(S(=O)(=O)OC[C@@H]2CN3[C@H](c4ccc(Br)cc4)[C@H](C)CC[C@H]3C(=O)O2)cc1  inactive
2  C=CCOC(=O)NC(c1ccc(F)c(F)c1)C(C(=O)CCl)C(=O)OC (stereo not given)  inactive
3  COCc1cc2cc3c(cc2c2c(C(=O)OC)c(C(=O)OC)c(C(=O)OC(C)(C)C)n12)OCO3    active
4  COC(=O)[C@H](COC(C)(C)C)NC(=O)O[C@@H]1C(=O)c2ccc(OC)cc2O[C@H]1c1ccc2c(c1)OCO2  inactive
5  Brc1ccc2c(c1)c1cc(Br)ccc1n2CC1CO1 (stereo not given)    active

----------
assay: qHTS for Inhibitors of Plasmodium falciparum (CP250) proliferation (AID 504320);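 further: plate controls were DMSO vehicle for no effect and 0.29 µM artemisinin control for full effect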; conditions: P. falciparum CP250 in erythrocytes, SYBR Green DNA, 72 h; series mostly up to 6.7 µM
Records with an inconclusive call do not appear. Calls of active or inactive are those of the source. Calls come from the whole dose curve; as a rule, active = well fitted inhibition curve with a large enough effect; inconclusive = small, poorly fitted or top-dose-only effect, or effect the other way; inactive = flat fitted curve, though single readings scatter.
measurementKind: outcome

> print(dat)
                                   compound  assayresult
1  CCC(=O)N1C2=C(c3ccccc3[C@@H]1CC(=O)Nc1ccc3ccccc3c1)[C@H]1C(=O)N(c3ccccc3)C(=O)[C@@H]1[C@H](C)C2     inactive
2  C=C(C(C)=O)C(O)c1ccco1 (stereo not drawn)     inactive
3  CC(=O)OC[C@H]1O[C@@H](ON=CC[C@@H]2C=C[C@@H](OC(C)=O)[C@@H](COC(C)=O)O2)[C@@H](OC(C)=O)[C@@H](OC(C)=O)[C@@H]1OC(C)=O     inactive
4  C=CCN(C)C1=NC(c2ccccc2)C(C(=O)OC)=C(C)N1CCOC (stereo not drawn)     inactive
5  CCN(CCNC(=O)[C@H]1C=C(OC)C(=O)C[C@@H]2c3ccccc3C[C@]12C)C(C)=O     inactive
6  COC(=O)[C@]1(C=C2c3ccccc3C[C@H](OC)[C@@H]2C)[C@@H]2CC=C[C@@H]21     inactive
7  CC(C)CON=C1C[C@@H](O)[C@@H](O)[C@@H]2[C@H]3C(=O)N(c4ccc(F)cc4F)C(=O)[C@@H]3CC[C@@H]12     inactive
8                         Cc1c(O)ccc2c1OCO2     inactive

----------
system: Hek293T; assay: Primary qHTS to identify gynecologic anti-cancer compounds using libraries of approved drugs and bioactive compounds (AID 1345084); details: Gynecologic cancer cell panel viability, ATPlite luminescence, 48 h, control line for the selectivity index; series mostly up to 57.5 µM; further: on the % scale 0 is the no-effect control and ±100 the full control effect; nearly all actives have a fitted effect of over 55% in size
Inconclusive results are not listed. Activity calls are given as the source filed them. Calls follow the shape of the dose curve; as a rule, active = well fitted cell-killing curve with a large enough effect; inconclusive = small, poorly fitted or top-dose-only effect, or effect the other way; inactive = flat fitted curve, though single readings scatter.
measurementKind: outcome

> print(dat)
                                smilesinput  assayresult
1  CN1CCN(C(=O)c2ccc(Nc3nccc(-c4cccs4)n3)cc2Cl)CC1     inactive
2  CN([C@H]1c2cc(OCCCC(F)(F)F)ccc2OC(C)(C)[C@@H]1O)S(C)(=O)=O     inactive
3  CN(CCCNC(=O)c1ccc2nc3c(c(Cl)c2c1)CCCC3)Cc1ccccc1     inactive
4  COc1cc2nc(N3CCN(C)CC3)nc(NC3CCN(Cc4ccccc4)CC3)c2cc1OC     inactive
5  Cc1cc(C)c(NC(=O)N(Cc2ccc3c(c2)Cc2ccccc2-3)C2CCCCCC2)c(C)c1     inactive

----------
test: Primary qHTS for small molecule stabilizers of the endoplasmic reticulum resident proteome: Secreted ER Calcium Modulated Protein (SERCaMP) assay (AID 1508630); conditions: SH-SY5Y GLuc-SERCaMP (Gaussia luciferase released on ER calcium loss) secretion, thapsigargin, luminescence; series mostly up to 38.4 µM; further: on the % scale 0 is the no-effect control and ±100 the full control effect
Records with an inconclusive call do not appear. The source made the active and inactive calls. The call rests on the fitted dose curve; in most records, active means well fitted inhibition curve with a large enough effect; inconclusive means small, poorly fitted or top-dose-only effect; inactive means no such curve, though single readings can be large or run the other way.
measurementKind: activity change, negative = inhibition

> print(dat)
                                    molecule                     assayresult
 1  N[C@H](C(=O)O)C1C(C(=O)O)C1C(=O)O (stereo partly specified)                        inactive
 2  C/C(O)=C1\C(=O)[C@@H]2[C@H]3c4c[nH]c5cccc(c45)C[C@H]3C(C)(C)N2C1=O                        inactive
 3                O=C(O)c1c2ccccc2cc2ccccc12                        inactive
 4                         Nc1ncc2[nH]cnc2n1                        inactive
 5  COC(=O)[C@@H]1[C@H]2C[C@H]3c4[nH]c5ccccc5c4CCN3C[C@H]2CC[C@@H]1O                        inactive
 6  C=C1/C(=C\C=C2\CCCC3(C)C2CCC3C(C)/C=C/C(O)C2CC2)CC(O)CC1O (stereo unspecified)                        inactive
 7  CCCCC[C@H](O)/C=C/[C@H]1C(=O)C=C[C@@H]1C/C=C\CCCC(=O)O  -10.1% [at 3.88 µM] (inactive)
 8  CSc1cc2c(cc1C(F)(F)F)N(C(=O)Nc1cccnc1)CC2                        inactive
 9  COc1ccc(-n2[nH]c3c4c(ncc3c2=O)CCCCC4)cc1                        inactive
10                OCc1cc2c(cn1)[nH]c1ccccc12                        inactive
11           CCCCCCCCCCC/C=C\C/C=C\CCCC(=O)O  -21.5% [at 3.88 µM] (inactive)

----------
molecular target: Furin (Homo sapiens) (UniProt P09958); assay: Furin counterscreen qHTS for Zika virus inhibitors (AID 1347149); conditions: furin enzymatic counterscreen, fluorogenic substrate; series mostly up to 114 µM; further: nearly all actives have a fitted effect of over 70% in size
Sequence (P09958 whole entry, looked up): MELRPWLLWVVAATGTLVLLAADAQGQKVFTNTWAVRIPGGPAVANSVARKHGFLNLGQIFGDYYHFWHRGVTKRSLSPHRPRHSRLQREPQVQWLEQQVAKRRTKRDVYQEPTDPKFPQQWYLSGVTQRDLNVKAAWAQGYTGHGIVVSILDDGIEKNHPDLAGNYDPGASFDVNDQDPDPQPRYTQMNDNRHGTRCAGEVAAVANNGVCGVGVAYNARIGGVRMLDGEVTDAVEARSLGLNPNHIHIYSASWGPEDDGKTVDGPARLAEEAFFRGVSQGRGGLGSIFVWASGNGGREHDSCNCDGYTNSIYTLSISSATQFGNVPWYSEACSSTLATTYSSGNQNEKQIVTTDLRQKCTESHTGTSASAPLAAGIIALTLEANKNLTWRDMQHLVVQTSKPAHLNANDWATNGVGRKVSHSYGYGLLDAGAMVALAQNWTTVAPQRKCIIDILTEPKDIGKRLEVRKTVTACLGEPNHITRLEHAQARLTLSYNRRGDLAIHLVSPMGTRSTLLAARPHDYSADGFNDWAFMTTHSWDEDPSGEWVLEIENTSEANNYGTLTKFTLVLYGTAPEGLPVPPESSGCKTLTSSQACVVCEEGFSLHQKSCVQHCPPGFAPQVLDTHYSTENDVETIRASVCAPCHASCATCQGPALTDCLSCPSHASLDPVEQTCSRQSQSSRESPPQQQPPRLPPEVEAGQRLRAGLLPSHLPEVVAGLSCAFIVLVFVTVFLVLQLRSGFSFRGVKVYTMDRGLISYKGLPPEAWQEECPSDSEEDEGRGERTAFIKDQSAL
Inconclusive results are not listed. Activity calls are given as the source filed them. Calls come from the whole dose curve; as a rule, active = well fitted inhibition curve with a large enough effect; inconclusive = small, poorly fitted or top-dose-only effect; inactive = no such curve, though single readings can be large or run the other way.
Possible outcomes: 1.0 (active), 0.0 (inactive)

> print(dat)
                                   compound                        systemundertest  category
1  O=C(OC1Cc2c(O)cc(O)cc2OC1c1cc(O)c(O)c(O)c1)c1cc(O)c(O)c(O)c1 (centres undefined)  Furin (Homo sapiens) (UniProt P09958)       0.0
2  Cc1cc(NC(=O)c2ccc(Cl)c(Cl)c2)ccc1-c1cc2ccccc2oc1=O  Furin (Homo sapiens) (UniProt P09958)       1.0
3  Cc1ccc(-c2nnc(Nc3ccc(O)cc3)c3ccccc23)cc1S(=O)(=O)NC(C)(C)CO  Furin (Homo sapiens) (UniProt P09958)       0.0
4  Cc1ccc(C(=O)Nc2ccc(C(=O)OCc3cc(=O)n4nc(C5CC5)sc4n3)cc2)cc1  Furin (Homo sapiens) (UniProt P09958)       0.0
5  O=C(O)c1ccc(NC(=O)c2cn(-c3ccccc3)nc2-c2ccc(Br)cc2)cc1  Furin (Homo sapiens) (UniProt P09958)       0.0
6  O=C(Nc1ccc(C(=O)OCc2cc(=O)n3c4c(sc3n2)CCCC4)cc1)c1ccc(Cl)cc1  Furin (Homo sapiens) (UniProt P09958)       1.0
7  Cc1ccc(NC(=O)CSc2ncccc2C(=O)Oc2ccccc2Cl)cc1Cl  Furin (Homo sapiens) (UniProt P09958)       0.0
8  Cc1ccc(OCC(=O)Nc2ccc(C(=O)OCc3cc(=O)n4nc(C5CC5)sc4n3)cc2)cc1  Furin (Homo sapiens) (UniProt P09958)       0.0
9  O=C(COc1ccccc1F)Nc1ccccc1C(=O)OCc1cc(=O)n2nc(C3CC3)sc2n1  Furin (Homo sapiens) (UniProt P09958)       0.0

----------
# maps each entry to its Potency
assay: qHTS for differential inhibitors of proliferation of Plasmodium falciparum line W2 (AID 1883); conditions: Plasmodium falciparum W2 proliferation inhibition; series mostly up to 28.7 µM;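 further: potency means the concentration at half of the fitted maximal effect; parasites grown with compound for 72 h before lysis and staining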
Inconclusive results are not listed. Active and inactive are the calls of the source. Calls come from the whole dose curve; as a rule, active = well fitted curve in the direction sought with a large enough effect; inconclusive = small, poorly fitted or top-dose-only effect, or another doubt; inactive = no such curve, though single readings can be large or run the other way.
measurementKind: Potency

> print(dat)
                                   compound       assayresult
1  C/C=C1\C(=O)CC2C3CCC4=CC(=O)CC[C@]4(C)C3CC[C@]12C (some centres undefined)  7.08 µM (active)
2       NCCCCCCNS(=O)(=O)c1cccc2c(Cl)cccc12  12.6 µM (active)
3  COc1[nH]c2ccc(F)cc2c1C(=O)OCC1CCN(CCNS(C)(=O)=O)CC1    10 µM (active)
